// reported μL em for each item listed
system: alkaline phosphatase; assay: Chemiluminescence emission wavelength maximum (Spex Fluorolog); type: biochemical; conditions: 0.1M DEA, pH, 25° C.; dioxetane concentration 3.7 × 10^−7M to 6 × 10^−6M
Just the number, please, no unit attached.

COC1(c2cc(Cl)cc(OP(=O)([O-])[O][NaH2-2])c2)OOC12C1CC3CC(C1)CC2C3.[Na+] (stereo not drawn) :: 471
COC1(c2cccc(OP(=O)(O)O)c2)OOC12C1CC3CC(C1)CC2C3 (stereo not drawn) [AMPPD, reference compound] :: 477
COC1(c2cc(Cl)cc(OP(=O)([O-])[O][NaH2-2])c2)OOC12C1CC3CC2CC(Cl)(C3)C1.[Na+] (stereo not drawn) :: 470
COc1cc(OP(=O)([O-])[O][NaH2-2])cc(C2(OC)OOC23C2CC4CC(C2)CC3C4)c1.[Na+] (stereo not drawn) :: 476
COc1cc(OP(=O)([O-])[O][NaH2-2])cc(C2(OC)OOC23C2CC4CC3CC(Cl)(C4)C2)c1.[Na+] (stereo not drawn) :: 475

# context switch: different molecule, same μL em
Ask: Quick one: μL em of COC1(c2cccc(OP(=O)(O)O)c2)OOC12C1CC3CC2CC(Cl)(C3)C1 (stereo not drawn) [CSPD, reference compound] ?
Reply: 475
